# Experiment summary: NCI Yeast Anticancer Drug Screen. Data for the mgt1 strain (AID 153)
# Condition label: S. cerevisiae mgt1 mutant growth inhibition; at 100.0 µM
About 79,000 compounds went through this panel and 15% of them were active in at least one assay; those are over-represented in the sample as a whole. Calls of active or inactive are those of the source. No stated cut-off is given here; in the data, active means growth inhibition above about 70%; inactive means the rest.
I would appreciate it if you answered using one of these outcomes: yes (1) = active, no (0) = inactive

# Compound, Category label
measured = [
    ("O=C1c2ccccc2C(=O)c2sc(Nc3ccccc3Cl)nc21", "yes (1)"),
    ("O=C(/N=N/C(=O)Oc1ccccc1)Oc1ccccc1", "no (0)"),
    ("CC(/C=C/c1ccc([N+](=O)[O-])o1)=N/N1CC(CN2CCOCC2)OC1=O (stereo unspecified)", "yes (1)"),
]

Given CCCCOc1ccc2nc(C)cc(N=[N+]=[N-])c2c1 , state the outcome it received in this test. yes (1)

Given CCN(CC)CCC(=O)Nc1ccc2sc3ccccc3c(=O)c2n1 , state the outcome it received in this test. no (0)

Given CC1(C)CC(=O)C(/C=N/c2nc(-c3ccc(Br)cc3)cs2)=C(O)C1 , state the outcome it received in this test. yes (1)

Given CCC(OC(C)=O)C1CC(C(C)C)CCC1C (stereo unspecified) , state the outcome it received in this test. yes (1)

Given Cc1cccc(C)c1NC(=O)CCC(=O)C(C)C(=O)c1ccc(O)cc1 (stereo unspecified) , state the outcome it received in this test. no (0)

Given O=[N+]([O-])c1cc[n+]([O-])c(Cl)c1 , state the outcome it received in this test. yes (1)

Given CCC1(O)C(=O)OCc2c1cc1n(c2=O)Cc2cc3c(N)cccc3nc2-1 (stereo unspecified) , state the outcome it received in this test. no (0)

Given O=C(c1cc(=O)c2ccc(O)cc2o1)c1ccc(Cl)cc1Cl , state the outcome it received in this test. yes (1)

----------
# Experiment summary: NCI Yeast Anticancer Drug Screen. Data for the bub3 strain (AID 167)
# Condition label: S. cerevisiae bub3 mutant strain, at 50.0 µM (retest, dose inferred, filed as 5.0)
About 79,000 compounds went through this panel and 15% of them were active in at least one assay; those are over-represented in the sample as a whole. The source made the active and inactive calls. Cut-off read from the data, not from the text of the source: active = growth inhibition above about 70%; inactive = the rest.
I would appreciate it if you answered using one of these outcomes: 1.0 (active), 0.0 (inactive)

Example results:
# Compound, Category label
rows = [
    ("O=CC1(F)CC1(c1ccccc1)c1ccccc1 (stereo not drawn)", 0.0),
    ("Cc1c(C(=O)/C=C/c2ccccc2[N+](=O)[O-])[n+](=O)c2ccccc2n1[O-]", 0.0),
    ("Nc1ccc(S(=O)(=O)Nc2nc3c(c(=O)[nH]2)CCCC3)cc1", 1.0),
    ("Oc1ccc(C2(c3ccc(O)cc3)CCCC2)cc1", 1.0),
    ("CCC[CH2][Sn]([CH2]CCC)([CH2]CCC)/[C](=C/[Si](C)(C)c1ccccc1)c1ccc2c(c1)OCO2", 0.0),
]

Given c1ccc2c(c1)ccn2CCc1c[nH]c2ccccc12 , state the outcome it received in this test. 1.0

Given COc1ccccc1NC(=O)c1ccc(Cl)cc1 , state the outcome it received in this test. 0.0

Given CSc1nc(-c2ccccc2)nc(=[N+]2CCOCC2)s1 , state the outcome it received in this test. 0.0

----------
# Experiment summary: NCI Yeast Anticancer Drug Screen. Data for the bub3 strain (AID 167)
# Condition label: S. cerevisiae bub3 mutant strain, at 50.0 µM (retest, dose inferred, filed as 5.0)
This is part of a sample that, as a whole, favours compounds with a hit. Of some 79,000 tested, about 15% had one in any assay. Calls of active or inactive are those of the source. Rule as the data show it: active = growth inhibition above about 70%; inactive = the rest.
I would appreciate it if you answered using one of these outcomes: active, inactive

# Compound, Category label
rows = [
    ("N#CSCC1COc2ccccc2O1 (configuration not stated)", "active"),
]

Given Cc1cc2nc3ccccc3n2c2ccccc12 , state the outcome it received in this test. inactive

Given Cc1oc2ccccc2c(=O)c1Cn1nnc2ccccc21 , state the outcome it received in this test. inactive

Given c1ccc2nc3c(nc2c1)sc1ccccc13 , state the outcome it received in this test. inactive

Given COc1ccc2nc(CCc3ccccc3)ccc2c1 , state the outcome it received in this test. active

Given COC(=O)C(Cl)(Cl)N=Nc1c(Cl)cc(Cl)c(C)c1Cl , state the outcome it received in this test. inactive

Given CC1=NN(C(=O)c2ccccc2O)C(=O)/C1=C/c1ccco1 , state the outcome it received in this test. active

Given N#Cc1nc(Nc2ccc(Cl)cc2)sc1N , state the outcome it received in this test. active

Given CC1(C)C(O)OC(O)C1(C)C (configuration not stated) , state the outcome it received in this test. inactive

Given N#[N+]c1c([O-])c2ccccc2c2ccccc12 , state the outcome it received in this test. inactive

Given O=C(O)c1cc2c(cc1S(=O)(=O)O)C1C(C3C2C2(Cl)C(Cl)=C(Cl)C3(Cl)C2(Cl)Cl)C2(Cl)C(Cl)=C(Cl)C1(Cl)C2(Cl)Cl (configuration not stated) , state the outcome it received in this test. active

Given CCC(C)(C)c1ccc(Oc2ccccc2)c(N)c1 , state the outcome it received in this test. active

----------
# Experiment summary: NCI Yeast Anticancer Drug Screen. Data for the sgs1 strain (AID 173);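 further: 0% = growth of vehicle-only control cultures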
# Condition label: S. cerevisiae sgs1 mutant, at 33.0 µM
The panel holds about 79,000 compounds, 15% with a hit somewhere; the sample as a whole holds those more often. Activity calls are given as the source filed them. Rule as the data show it: active = growth inhibition above about 70%; inactive = the rest.
I would appreciate it if you answered using one of these outcomes: active, inactive

# Compound, Category label
rows = [
    ("COc1ccc(C(C)c2cc3c(cc2OC(C)O)OCO3)cc1 (stereo not drawn)", "inactive"),
    ("CC1(C)CC(=O)C(C=NC(=S)C(N)=S)=C(O)C1", "inactive"),
]

Given Cc1ccccc1NC(=O)c1c(C)oc2c1C(=O)c1ccccc1C2=O , state the outcome it received in this test. inactive

Given COC(=O)C(Cl)(Cl)N=Nc1c(Cl)cc(Cl)c(C)c1Cl , state the outcome it received in this test. active

Given CCCCCCCCCCCCOCCOCCOCC(N)=O , state the outcome it received in this test. active

Given Cc1nc2sc3c(c2c(=O)o1)CCCC3 , state the outcome it received in this test. inactive

Given O=C(C#Cc1ccccc1)Nc1ccccc1 , state the outcome it received in this test. active

Given OC(Cc1cccc2ccccc12)CN1CCC(c2ccccc2)CC1 (stereo not drawn) , state the outcome it received in this test. active

----------
# Experiment summary: NCI Yeast Anticancer Drug Screen. Data for the mlh1 strain (AID 171);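 further: 0% = growth of vehicle-treated control cultures of the same strain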
# Condition label: S. cerevisiae mlh1 strain growth inhibition; at 3.7 µM; stronger effect = higher value
About 79,000 compounds went through this panel and 15% of them were active in at least one assay; those are over-represented in the sample as a whole.
Collected growth inhibition values appear next to each entry.
Form entry: value (%) — number only.

Given the entry O=S(=O)(c1cccc(C(F)(F)F)c1)N1c2ccccc2-n2cccc2C1c1cccnc1 (stereo not drawn) , report its measured growth inhibition. -15

Given the entry CCC(C)COC(=O)Nc1cccc(Cl)c1 (stereo not drawn) , report its measured growth inhibition. -5

Given the entry CCN1CCC(O)(c2ccc(Oc3ccc(Cl)cc3)cc2)C(C(=O)c2ccc(Oc3ccc(Cl)cc3)cc2)C1 (stereo not drawn) , report its measured growth inhibition. -4

Given the entry O=C(NCCCCN(CCCNC(=O)C(F)(F)F)Cc1ccccc1)C(F)(F)F , report its measured growth inhibition. 33

Given the entry COc1ccc(N=c2cc(-c3ccccc3)oc3ccccc23)cc1 , report its measured growth inhibition. -1

Given the entry CCCNC(=O)OCc1c(COC(=O)NCCC)c(-c2ccc(Cl)c(Cl)c2)n2c1CCC2 , report its measured growth inhibition. -9

Given the entry Cc1cc(C)c2[s+]snc2c1 , report its measured growth inhibition. 1

Given the entry CSC(=S)N/N=C/c1ccccc1 , report its measured growth inhibition. 3

Given the entry CCOc1ccc2nc3ccccc3c(N)c2c1 , report its measured growth inhibition. 8

Given the entry CCOc1ccc(N)c(S)c1 , report its measured growth inhibition. 3

----------
Collected growth inhibition values appear next to each entry.
# Experiment summary: NCI Yeast Anticancer Drug Screen. Data for the rad50 strain (AID 155);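 further: 0% = growth of vehicle-only cultures of the same strain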
# Condition label: S. cerevisiae rad50 strain growth inhibition; at 50.0 µM (retest, dose inferred, filed as 5.0); stronger effect = higher value
The panel holds about 79,000 compounds, 15% with a hit somewhere; the sample as a whole holds those more often.
Form entry: value (%) — number only.

Sample answers from the record:
# Compound, Recorded number
rows = [
    ("O=C(O)/C=C\\C(=O)Nc1ccc2c(c1)Cc1cc(Cl)ccc1-2", 7),
    ("O=C(O)c1ccc2cc(Cl)c3ccccc3c2c1", 93),
    ("CC(=O)O[C@H]1CC[C@@]2(C)C(=CC[C@@H]3C2CC[C@]2(C)C(=O)NC(=O)CC32)C1 (stereo partly specified)", -29),
    ("CCN(CC)CC(=O)c1ccc2cc(Cl)c3ccccc3c2c1", 98),
]

Given the entry CC(=O)CCC1=C(C)C(=O)C(=O)C(C)=C1O , report its measured growth inhibition. 42

Given the entry OC1(C#CI)CCCCC1 , report its measured growth inhibition. 97
